Target: recombinant mouse prion protein immobilised for SPR (mPrP) (Mus musculus, UniProt P04925)
Sequence (P04925 23-230): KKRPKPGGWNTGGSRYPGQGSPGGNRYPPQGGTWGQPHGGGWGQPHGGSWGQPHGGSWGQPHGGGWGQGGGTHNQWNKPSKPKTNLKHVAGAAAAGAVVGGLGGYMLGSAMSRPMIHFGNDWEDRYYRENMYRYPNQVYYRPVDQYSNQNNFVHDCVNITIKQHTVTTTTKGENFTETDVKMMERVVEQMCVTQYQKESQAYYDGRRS
Experiment: SPR
Settings: both partners purified
Recorded Kd for the following binders
measure: Kd (nM)

pomolog lcY96A (POM1 scFv, light chain Y96A) (scFv, V domains shown) VH: QVQLQQSGTELVMPGASVKMSCKASGYTFTDYWMHWVKQRPGQGLEWIGSIDPSDSYTSHNEKFKGKATLTVDESSSTAYMQLSSLTSEDSAVYFCSRSGYGYYAMEYWGQGTSVTVSS VL: DIVLTQSPAILSVSPGERVSFSCRASQNIGTSIHWYQQRTNESPRLIIKYASESISGIPSRFSGSGSGTDFTLSINSVESEDIADYYCQQSNTWPATFGGGTKLELK    123
pomolog hcY101A (POM1 scFv, heavy chain Y101A) (scFv, V domains shown) VH: QVQLQQSGTELVMPGASVKMSCKASGYTFTDYWMHWVKQRPGQGLEWIGSIDPSDSYTSHNEKFKGKATLTVDESSSTAYMQLSSLTSEDSAVYFCSRSGAGYYAMEYWGQGTSVTVSS VL: DIVLTQSPAILSVSPGERVSFSCRASQNIGTSIHWYQQRTNESPRLIIKYASESISGIPSRFSGSGSGTDFTLSINSVESEDIADYYCQQSNTWPYTFGGGTKLELK    11
pomolog hcY57A (POM1 scFv, heavy chain Y57A) (scFv, V domains shown) VH: QVQLQQSGTELVMPGASVKMSCKASGYTFTDYWMHWVKQRPGQGLEWIGSIDPSDSATSHNEKFKGKATLTVDESSSTAYMQLSSLTSEDSAVYFCSRSGYGYYAMEYWGQGTSVTVSS VL: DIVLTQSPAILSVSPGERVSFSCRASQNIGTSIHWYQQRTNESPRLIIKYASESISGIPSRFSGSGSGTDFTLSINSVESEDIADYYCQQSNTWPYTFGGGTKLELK    406
pomolog lcS91A (POM1 scFv, light chain S91A) (scFv, V domains shown) VH: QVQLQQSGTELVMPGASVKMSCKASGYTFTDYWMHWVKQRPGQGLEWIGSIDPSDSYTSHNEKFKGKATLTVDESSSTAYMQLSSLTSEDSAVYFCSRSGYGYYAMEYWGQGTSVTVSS VL: DIVLTQSPAILSVSPGERVSFSCRASQNIGTSIHWYQQRTNESPRLIIKYASESISGIPSRFSGSGSGTDFTLSINSVESEDIADYYCQQANTWPYTFGGGTKLELK    1430
